- assay remarks: Pharmacokinetic analyses, oral once daily for 10 days
- assay context: male, C57BL/6J, mouse, plasma, po, 3 mg/kg
quantity kind: Vd/F (L/kg)

C#C[C@@](C)(c1ccc(Cl)cc1)c1csc(NC(=O)c2c(F)cc(N3CCNCC3)cc2F)n1 (stereo in doubt) ... 18.3

----------
- assay remarks: Pharmacokinetic analyses, oral once daily for 10 days
- assay context: male, C57BL/6J, mouse, plasma, oral, 3 mg/kg, DF-003 Conc. in plasma, 3 mg/kg; 0.5 hours after 10th dosing; individual animals
quantity kind: concentration at 0.5 h (ng/mL)

C#C[C@@](C)(c1ccc(Cl)cc1)c1csc(NC(=O)c2c(F)cc(N3CCNCC3)cc2F)n1 (stereo in doubt) ... 78.6
